- Tested on: HL-60
- assay-notes: Cytotoxicity against human HL60 cells by sulforhodamine B assay
- Assay type: functional, cell-based
measured-endpoint: IC50

| smiles-notation | measured-endpoint | observed-result |
| --- | --- | --- |
| CC1(C)C(=O)CC[C@@]2(C)[C@H]1CC[C@]1(C)Oc3cc(O)c4c(c3C[C@@H]21)C[C@@H](O)CC4=O | IC50 | > 50 µM |
| C[C@H]1OC(=O)c2c(O)cc3c(c2[C@H]1O)C[C@H]1[C@@]2(C)C=CC(=O)C(C)(C)[C@@H]2C[C@H](O)[C@]1(C)O3 | IC50 | > 50 µM |
| CC1(C)C(=O)C=C[C@@]2(C)[C@H]1CC[C@]1(C)Oc3cc(O)c4c(c3C[C@@H]21)C[C@@H](O)CC4=O | IC50 | > 50 µM |
| CC(=O)O[C@@H]1c2c3c(cc(O)c2C(=O)O[C@@H]1C)O[C@@]1(C)[C@@H](O)C[C@H]2C(C)(C)C(=O)C=C[C@]2(C)[C@@H]1C3 | IC50 | > 50 µM |

---

Recorded IC50 by entry
- Test system: HL-60
- assay-notes: Cytotoxicity against human HL60 cells by sulforhodamine B assay
- Assay type: functional, cell-based

| smiles-notation | IC50 |
| --- | --- |
| C[C@@H]1Cc2c3c(cc(O)c2C(=O)O1)O[C@@]1(C)[C@@H](O)C[C@H]2C(C)(C)[C@@H](O)CC[C@]2(C)[C@@H]1C3 | > 50 µM |
| C[C@@H]1Cc2c3c(cc(O)c2C(=O)O1)O[C@@]1(C)[C@@H](O)C[C@H]2C(C)(C)C(=O)CC[C@]2(C)[C@@H]1C3 | > 50 µM |
| C[C@@H]1Cc2c3c(cc(O)c2C(=O)O1)O[C@@]1(C)[C@@H](O)C[C@H]2C(C)(C)C(=O)C=C[C@]2(C)[C@@H]1C3 | > 50 µM |

These data points were gathered from ChEMBL document CHEMBL3580656.
